Data origin: patent US8377943B2

molecular target: PTK2-phosphorylation at tyrosine 397 (pY397) (Homo sapiens, UniProt Q05397); construct: endogenous in cells; experiment: Phospho-PTK2 (pY397) Assay in PC-3 cells; conditions: PC-3 prostate carcinoma cells, 2 h incubation; read-out: PC3pPTK2 Y397 EC50
Sequence (Q05397 whole entry): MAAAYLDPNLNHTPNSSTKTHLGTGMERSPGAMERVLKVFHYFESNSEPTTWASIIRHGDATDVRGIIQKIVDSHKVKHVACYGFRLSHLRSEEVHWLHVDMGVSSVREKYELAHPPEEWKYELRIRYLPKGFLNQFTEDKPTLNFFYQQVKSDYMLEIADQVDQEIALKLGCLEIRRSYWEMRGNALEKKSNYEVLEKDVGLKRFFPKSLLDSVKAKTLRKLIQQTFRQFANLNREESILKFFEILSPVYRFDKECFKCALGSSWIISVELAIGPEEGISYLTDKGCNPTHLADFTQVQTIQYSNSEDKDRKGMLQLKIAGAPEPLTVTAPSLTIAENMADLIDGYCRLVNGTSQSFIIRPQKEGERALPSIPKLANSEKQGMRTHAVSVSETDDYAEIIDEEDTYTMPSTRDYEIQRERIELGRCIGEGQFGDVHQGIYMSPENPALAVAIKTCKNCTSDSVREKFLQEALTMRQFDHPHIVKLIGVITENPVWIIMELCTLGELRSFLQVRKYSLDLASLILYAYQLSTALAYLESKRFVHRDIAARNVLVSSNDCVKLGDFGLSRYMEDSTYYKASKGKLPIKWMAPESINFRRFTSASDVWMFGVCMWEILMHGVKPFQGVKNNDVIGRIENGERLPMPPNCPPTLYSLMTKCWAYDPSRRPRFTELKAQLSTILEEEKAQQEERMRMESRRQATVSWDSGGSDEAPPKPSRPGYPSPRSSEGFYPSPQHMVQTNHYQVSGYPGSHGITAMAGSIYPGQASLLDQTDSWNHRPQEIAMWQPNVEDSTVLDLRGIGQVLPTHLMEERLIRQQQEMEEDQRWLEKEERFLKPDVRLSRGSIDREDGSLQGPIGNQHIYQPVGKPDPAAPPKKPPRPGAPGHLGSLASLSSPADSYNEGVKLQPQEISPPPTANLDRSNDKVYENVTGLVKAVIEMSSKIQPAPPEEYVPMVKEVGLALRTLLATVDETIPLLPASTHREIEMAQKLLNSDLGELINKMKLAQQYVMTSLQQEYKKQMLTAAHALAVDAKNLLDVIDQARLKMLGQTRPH
readout name: EC50 (nM)

Sample answers from the record:
molecule=COC(=O)Nc1cc(OC)c(Nc2ncc(C(F)(F)F)c(NCc3ccc(OC)cc3N(C)S(C)(=O)=O)n2)cc1C system_tested="PTK2-phosphorylation at tyrosine 397 (pY397) (Homo sapiens, UniProt Q05397)" measured=3
molecule=COc1cc(C(=O)N[C@H]2CC[C@@H]3[C@@H](CCN3C)C2)ccc1Nc1ncc(C(F)(F)F)c(NCc2ccc(C)cc2N(C)S(C)(=O)=O)n1 system_tested="PTK2-phosphorylation at tyrosine 397 (pY397) (Homo sapiens, UniProt Q05397)" measured=0.67

(A) Cc1ccc(CNc2nc(Nc3ccc(C(=O)NC4CCN(C)CC4)cc3C)ncc2C(F)(F)F)c(N(C)S(C)(=O)=O)c1
(B) CCN1CCC(NC(=O)c2cc(OC)c(Nc3ncc(C(F)(F)F)c(NCc4ccc(C)cc4N(C)S(C)(=O)=O)n3)cc2F)CC1
(C) COc1cc(C(=O)NC2CCC(N3CCN(CC4CC4)CC3)CC2)c(C)cc1Nc1ncc(C(F)(F)F)c(NCc2ccc(C)cc2N(C)S(C)(=O)=O)n1 (stereo not shown)
(D) COc1cc(C(=O)N[C@H]2CCN(C)C2)c(Cl)cc1Nc1ncc(C(F)(F)F)c(NCc2ccc(C)cc2N(C)S(C)(=O)=O)n1
Qu. Sort these molecules on EC50 so the largest reading comes first. Record the ranking as a list of labels in the requested order.
Ans. D, C, A, B
(D: 3 nM, C: 2 nM, A: 1 nM, B: 0.05 nM)

###

target: PTK2-phosphorylation at tyrosine 397 (pY397) (Homo sapiens); construct: endogenous in cells; experiment: Phospho-PTK2 (pY397) Assay in PC-3 cells; conditions: PC-3 prostate carcinoma cells, 2 h incubation; read-out: PC3pPTK2 Y397 EC50
pEC50: −log10 of the molar value.
readout name: pEC50

molecule=CCN1CCC(NC(=O)c2ccc(Nc3ncc(C(F)(F)F)c(NCc4ccc(C)cc4N(C)S(C)(=O)=O)n3)c(OC)c2)CC1 readout_name=pEC50 measured=9.85
molecule=COc1cc(C(=O)NC2CC(C)(C)N(C)C(C)(C)C2)ccc1Nc1ncc(C(F)(F)F)c(NCc2ccc(C)cc2N(C)S(C)(=O)=O)n1 readout_name=pEC50 measured=9.80
molecule=COc1cc(C(=O)NCCn2ccnc2)ccc1Nc1ncc(C(F)(F)F)c(NCc2ccc(C)cc2N(C)S(C)(=O)=O)n1 readout_name=pEC50 measured=9.80
molecule=COc1cc(CNC2CCC2)ccc1Nc1ncc(C(F)(F)F)c(NCc2ccc(C)cc2N(C)S(C)(=O)=O)n1 readout_name=pEC50 measured=9.22

(P) COc1cc(N2CCN(C)CC2)ccc1Nc1ncc(C(F)(F)F)c(NCc2ccc(F)cc2N(C)S(C)(=O)=O)n1
(Q) CCc1cc(C(=O)NC2CCN(C)CC2)ccc1Nc1ncc(C(F)(F)F)c(NCc2ccc(C)cc2N(C)S(C)(=O)=O)n1
Qu. Please choose the item with the lower pEC50 value from this pair: P and Q Let me know the label of the one you choose.
Ans. P

(I) COc1cc(C(=O)N[C@H]2CCN(C)C[C@H]2F)ccc1Nc1ncc(C(F)(F)F)c(NCc2ccc(C)cc2N(C)S(C)(=O)=O)n1
(II) COc1cc(C(=O)NC2CCC(N3CCOCC3)CC2)c(C)cc1Nc1ncc(C(F)(F)F)c(NCc2ccc(C)cc2N(C)S(C)(=O)=O)n1 (stereo not shown)
(III) COc1cc(C(=O)N[C@@H]2CCN(C)C[C@H]2F)c(F)cc1Nc1ncc(C(F)(F)F)c(NCc2ccc(C)cc2N(C)S(C)(=O)=O)n1
Qu. Given 3 molecules, produce a descending ranking by pEC50. Write the labels, ordered according to the request.
Ans. III, II, I

(a) COc1cc(C(=O)NC(C)(C)C)c(F)cc1Nc1ncc(C(F)(F)F)c(NCc2ccc(C)cc2N(C)S(C)(=O)=O)n1
(b) COc1cc(C(=O)N[C@@H]2CCN(C)C[C@@H]2F)c(F)cc1Nc1ncc(C(F)(F)F)c(NCc2ccc(C)cc2N(C)S(C)(=O)=O)n1
Qu. Of the two listed items, which has the higher pEC50? First: a Second: b Provide the label of your selected option as the answer.
Ans. b
